target: T1, recombinant biotinylated human CD71 extracellular domain (human, UniProt P02786 89-760, biotinylated)
T1 construct: extracellular domain; also called hCD71; huCD71 ECD
T1 sequence (P02786 other isoform, or with tags, fused parts or gaps): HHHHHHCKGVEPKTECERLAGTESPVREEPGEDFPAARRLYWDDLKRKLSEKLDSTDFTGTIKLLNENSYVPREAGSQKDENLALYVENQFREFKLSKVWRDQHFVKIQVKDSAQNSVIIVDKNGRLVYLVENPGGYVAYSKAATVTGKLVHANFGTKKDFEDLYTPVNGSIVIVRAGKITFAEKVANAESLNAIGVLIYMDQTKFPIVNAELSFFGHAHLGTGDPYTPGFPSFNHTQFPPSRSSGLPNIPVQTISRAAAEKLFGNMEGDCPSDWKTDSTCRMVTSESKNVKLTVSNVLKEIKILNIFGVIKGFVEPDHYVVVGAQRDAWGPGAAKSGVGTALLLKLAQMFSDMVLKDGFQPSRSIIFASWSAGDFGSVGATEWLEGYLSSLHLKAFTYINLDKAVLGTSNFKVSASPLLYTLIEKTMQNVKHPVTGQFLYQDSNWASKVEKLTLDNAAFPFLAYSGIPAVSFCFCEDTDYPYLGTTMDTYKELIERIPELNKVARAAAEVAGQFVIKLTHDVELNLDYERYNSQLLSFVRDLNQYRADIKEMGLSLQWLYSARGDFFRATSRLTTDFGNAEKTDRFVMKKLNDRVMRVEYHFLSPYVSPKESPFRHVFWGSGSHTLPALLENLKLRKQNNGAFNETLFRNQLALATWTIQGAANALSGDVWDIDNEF
assay-remarks: solution ELISA
value-kind: hCD71, RLU (RLU)
Numbers only, in RLU.

Some binders with recorded hCD71, RLU:
| binder | readout-units | hCD71, RLU |
| --- | --- | --- |
| SEQ ID NO 129 (designed binder, FN3 domain) MLPAPKNLVVSRVTEDSARLSWTAPDAAFDSFYIAYAEPRPDGEAINLWVPGSERSYDLTGLKPGTEYSVLIHGVKGGLLSSPLDASFTT | RLU | 219000 |
| SEQ ID NO 198 (designed binder, FN3 domain) MLPAPKNLVVSRVTEDSARLSWTAPDAAFDSFYIAYAEPRPDGEAIILEVPGSERSYDLTGLKPGTEYSVLIHGVKGGLLSSPLVAYFTT | RLU | 3.91e+06 |
| SEQ ID NO 110 (designed binder, FN3 domain) MLPAPKNLVVSRVTEDSARLSWTAPDAAFDSFFIGYLEPQPPGEAIYLTVPGSERSYDLTGLKPGTEYNVTIQGVKGGFPSYPLDASFTT | RLU | 636000 |

// next entry
Would you mind telling me what hCD71, RLU value was observed for SEQ ID NO 125 (designed binder, FN3 domain) MLPAPKNLVVSRVTEDSARLSWTAPDAAFDSFYIAYAEPRPDGEAIALHVPGSERSYDLTGLKPGTEYSVLIHGVKGGLLSSPLVAFFTT ? 1.23e+06
